test.system: Adenosine receptor A2a (Homo sapiens)
pKi: −log10 of the molar value.
Classify by measured pKi: TRUE if it is equal to or exceeds 7, FALSE if it is smaller.

Req: Given "CSc1nc(-c2ccco2)c2ncn(C(=O)NCc3ccccc3)c2n1" , state whether its pKi is at least 7.
Resp: TRUE

Req: Given "CS(=O)(=O)c1ccc(Cn2ncc3c(-c4ccco4)nc(N)nc32)cc1" , state whether its pKi is at least 7.
Resp: FALSE

Req: Given "Nc1nc(-c2cccs2)c2ncn(C(=O)NCc3ccccc3)c2n1" , state whether its pKi is at least 7.
Resp: TRUE

Req: Given "Nc1cccc(Cn2cnc3c(-c4ccco4)nc(N)nc32)c1" , state whether its pKi is at least 7.
Resp: TRUE

Req: Given "Nc1nc(-c2ccco2)c2ncn(Cc3cccc(Cl)c3)c2n1" , state whether its pKi is at least 7.
Resp: TRUE

Req: Given "Cn1ccnc1-c1nc(N)nc2c1cnn2Cc1ccccc1F" , state whether its pKi is at least 7.
Resp: FALSE

Req: Given "Nc1nc(-c2nccs2)c2cnn(Cc3ccccc3F)c2n1" , state whether its pKi is at least 7.
Resp: TRUE

Req: Given "Nc1nc(-c2ccccc2)c2ncn(C(=O)NCc3ccccc3)c2n1" , state whether its pKi is at least 7.
Resp: TRUE

Req: Given "CN(C)c1nc(-c2ccco2)c2ncn(C(=O)NCc3ccccc3)c2n1" , state whether its pKi is at least 7.
Resp: TRUE

Req: Given "CS(=O)(=O)c1ccc(Cn2cnc3c(-c4ccco4)nc(N)nc32)cc1" , state whether its pKi is at least 7.
Resp: FALSE

---

System: Mus musculus
assay.comment: Reversal of haloperidol-induced hypolocomotion in ip dosed mouse
Assay type: functional
condition.info: read-out: MED
measure.name: minimal effective dose (mg/kg)
Answers are plain numbers, in mg/kg.

Sample records with minimal effective dose:
| smiles.structure | test.system | unit.of.measurement | minimal effective dose |
| --- | --- | --- | --- |
| Nc1cccc(Cn2cnc3c(-c4ccco4)nc(N)nc32)c1 | Mus musculus | mg/kg | 10 |
| Cc1cccc(CNC(=O)n2cnc3c(-c4ccco4)nc(N)nc32)c1 | Mus musculus | mg/kg | 1 |

Next:
Req: Name the recorded minimal effective dose for "Nc1nc(-c2ccco2)c2nc[nH]c2n1" .
Resp: 10

---

log10 Ki tested on Adenosine receptor A2a (Homo sapiens, UniProt P29274): recorded values
Sequence (P29274 whole entry): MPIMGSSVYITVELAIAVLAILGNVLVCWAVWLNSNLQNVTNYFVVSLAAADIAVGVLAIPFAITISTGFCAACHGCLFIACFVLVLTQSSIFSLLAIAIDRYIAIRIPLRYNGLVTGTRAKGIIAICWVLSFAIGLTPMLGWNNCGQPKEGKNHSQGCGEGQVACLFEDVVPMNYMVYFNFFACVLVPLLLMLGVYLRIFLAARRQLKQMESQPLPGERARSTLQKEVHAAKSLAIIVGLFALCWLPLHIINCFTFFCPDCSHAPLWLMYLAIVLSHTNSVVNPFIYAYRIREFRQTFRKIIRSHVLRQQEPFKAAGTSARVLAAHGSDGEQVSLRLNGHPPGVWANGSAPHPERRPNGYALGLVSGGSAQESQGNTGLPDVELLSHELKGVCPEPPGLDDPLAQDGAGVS
Base-10 log of Ki, unit nM.

Sample records with log10 Ki:
| smiles.structure | endpoint.result |
| --- | --- |
| Nc1nc(-c2ccco2)c2cc[nH]c2n1 | 2.38 |
| Nc1nc(-c2ccco2)c2cnn(Cc3ccco3)c2n1 | 1.56 |
| Nc1nc(-c2cncs2)c2ncn(C(=O)NCc3ccccc3)c2n1 | 1.75 |
| Nc1nc(-c2ccco2)c2cnn(Cc3ccccc3[N+](=O)[O-])c2n1 | 1.41 |
| Nc1nc(-c2cccs2)c2cnn(Cc3ccccc3F)c2n1 | 0.95 |
| Cc1cccc(Cn2ncc3c(-c4ccco4)nc(N)nc32)c1 | 0.48 |
| Nc1nc(-c2ccco2)c2ncn(C(=O)Nc3ccccc3)c2n1 | 2.31 |

Req: # query: log10 Ki | item "Nc1nc(-c2ccco2)c2cnn(CCCc3ccccc3)c2n1" | system: Adenosine receptor A2a (Homo sapiens, UniProt P29274)
Resp: 0.60

---

pKi tested on Adenosine receptor A2a (Homo sapiens): recorded values
Numbers only, as −log10 of the molar value.

Sample records with pKi:
| smiles.structure | pKi |
| --- | --- |
| Nc1nc(-c2ccco2)c2nc[nH]c2n1 | 6.58 |
| Nc1nc(-c2ccco2)c2cnn(C(=O)NCc3ccccc3)c2n1 | 9.00 |
| Nc1nc(-c2ccco2)c2cnn(CC3CCCCC3)c2n1 | 7.35 |
| C[C@@H](NC(=O)n1cnc2c(-c3ccco3)nc(N)nc21)c1ccccc1 | 7.59 |
| COC(=O)c1cccc(Cn2cnc3c(-c4ccco4)nc(N)nc32)c1 | 7.35 |

Next:
Req: Name the recorded pKi for "Nc1nc(-c2ncc[nH]2)c2cnn(Cc3ccccc3F)c2n1" .
Resp: 5.68
